Test system: 1a-luc Y93H (HCV genotype 1a replicon)
protocol.description: Luciferase replicon transient transfection assay, 1a-luc Y93H
Type: cell-based, hepatitis C virus
condition.set: Hepatitis C virus, 96 h, Huh7.5 cells, 4 days
readout.type: log10 of EC50 (log10 of the value in nM)
Values reflect log10 of reported EC50 (nM).

Assign log10 of EC50 to the following record: COC(=O)N[C@H](C(=O)N1CCC[C@H]1c1ncc(-c2ccc(-c3cc4sc(-c5ccc(-c6c[nH]c(C7CCCN7C(=O)[C@H](NC(=O)OC)c7ccccc7)n6)cc5)cc4s3)cc2)[nH]1)C(C)C (stereo partly drawn)
1.90

Assign log10 of EC50 to the following record: COC(=O)N[C@H](C(=O)N1CCC[C@H]1c1nc(-c2ccc(-c3ccc(-c4c[nH]c([C@@H]5CCCN5C(=O)[C@@H](NC(=O)OC)C(C)C)n4)cc3)cc2)c[nH]1)C(C)C [BMS-790052, reference compound]
1.54

Assign log10 of EC50 to the following record: COC(=O)N[C@H](C(=O)N1CCC[C@H]1c1ncc(-c2ccc(-c3csc4c(-c5ccc6[nH]c([C@@H]7CCCN7C(=O)[C@H](NC(=O)OC)c7ccccc7)nc6c5)csc34)cc2)[nH]1)C(C)C
1.32

Assign log10 of EC50 to the following record: COC(=O)N[C@H](C(=O)N1CCCC1c1ncc(-c2csc3c(-c4ccc(-c5cnc(C6CCCN6C(=O)C(c6ccccc6)N6CCCCC6)[nH]5)cc4)csc23)[nH]1)C(C)C (stereo partly drawn)
2.32

Assign log10 of EC50 to the following record: COC(=O)N[C@H](C(=O)N1CCC[C@H]1c1nc2cc(-c3csc4c(-c5ccc(-c6cnc([C@@H]7CCCN7C(=O)[C@H](NC(=O)OC)c7ccccc7)[nH]6)cc5)csc34)ccc2[nH]1)C(C)C
0.95

----------
Some compounds, each annotated with its measured CC50.
protocol.description: in vitro
Assay type: cell-based
condition.set: human; GS4.1 cells, cellular viability

| compound | measured |
| --- | --- |
| COC(=O)N[C@H](C(=O)N1CCC[C@H]1c1ncc(-c2ccc(-c3cn4cc(-c5cnc(C6CCCN6C(=O)[C@@H](NC(=O)OC(C)(C)C)c6ccccc6)[nH]5)nc4s3)cc2)[nH]1)C(C)C (some centres unmarked) | > 75 µM |
| CCOC(=O)N[C@@H](C(=O)N1CCC[C@H]1C(=O)Nc1cn2cc(-c3ccc(-c4cnc([C@@H]5CCCN5C(=O)[C@@H](NC(=O)OC)C(C)C)[nH]4)cc3)sc2n1)c1ccccc1 | 10 to 75 µM |
| COC(=O)N[C@H](C(=O)N1CCC[C@H]1c1ncc(-c2csc3c(-c4cnc([C@@H]5CCCN5C(=O)[C@@H](NC(=O)OC)C(C)C)[nH]4)csc23)[nH]1)C(C)C | 10 to 75 µM |
| CC(C)(C)OC(=O)N1CCC[C@H]1c1ncc(-c2ccc(-c3cn4c(-c5ccccc5)csc4n3)cc2)[nH]1 | 10 to 75 µM |

Query compound follows.
Assign CC50 to the following record: COC(=O)N[C@H](C(=O)N1CCC[C@H]1c1ncc(-c2ccc(-c3cn4cc(NC(=O)[C@@H]5CCCN5C(=O)[C@H](NC(=O)OC)c5ccccc5)nc4s3)cc2)[nH]1)C(C)C
> 75 µM
